test system: human apolipoprotein B mRNA; test: Inhibition of human apolipoprotein B mRNA levels in HepG2 cells, quantitative real-time PCR; format: cell-based; conditions: HepG2 cells; human apolipoprotein B mRNA; oligonucleotides targeting genomic sequence SEQ ID NO 334; averages from two experiments
In the oligonucleotide strings, read from the 5' end, every base follows the letter of its sugar. An asterisk marks phosphorothioate; unmarked linkages are phosphodiester. Other units and linkages are bracketed, terminal groups are in braces. A string of capitals states the bases alone. e = 2'-O-(2-methoxyethyl) (MOE); [5mC] = 5-methylcytosine; d = 2'-deoxy (DNA)
Definition: the class of an entry is the range in b0 = under 20%, b1 = from 20% up to 30%, b2 = 30% and over that contains its % INHIB.

For orientation, consider the following solved cases.
301166 (antisense eA*eT*eT*e[5mC]*eT*dG*d[5mC]*d[5mC]*dT*d[5mC]*dT*dT*dA*dG*dA*eA*eA*eG*eT*eT) [compound 301166] :: b2
301099 (antisense eA*e[5mC]*e[5mC]*eA*e[5mC]*d[5mC]*dT*dG*dA*d[5mC]*dA*dT*d[5mC]*dA*d[5mC]*eA*eG*eG*eT*eT) [compound 301099] :: b1
301092 (antisense e[5mC]*eA*eT*eG*eA*d[5mC]*d[5mC]*dT*dA*d[5mC]*dT*dT*dG*dT*dA*eG*eG*eA*eG*eA) [compound 301092] :: b1
301121 (antisense eT*eT*eA*eT*eG*dA*dT*dA*dG*d[5mC]*dT*dA*d[5mC]*dA*dG*eA*eA*eT*eA*eA) [compound 301121] :: b1
301103 (antisense eT*e[5mC]*eT*eA*eA*dG*dA*dG*dG*dT*dA*dG*dA*dG*d[5mC]*eT*eA*eA*eA*eG) [compound 301103] :: b0
301052 (eA*eG*eA*eA*eA*dT*dA*dG*d[5mC]*dT*d[5mC]*dT*d[5mC]*d[5mC]*d[5mC]*eA*eA*eG*eG*eA; antisense) [compound 301052] :: b0
301055 (eT*eG*eG*e[5mC]*eT*d[5mC]*dA*dT*dG*dT*d[5mC]*dT*dA*d[5mC]*d[5mC]*eA*eT*eA*eT*eT; antisense) [compound 301055] :: b2
301094 (antisense eA*e[5mC]*eT*e[5mC]*eA*dA*dT*dA*dT*dA*dT*dA*dT*dT*d[5mC]*eA*eT*eT*eG*eA) [compound 301094] :: b1

QUERY: Any idea which band 301171 (antisense eT*eA*eT*eT*eT*dA*dA*dT*dT*dT*dA*d[5mC]*dT*dG*dA*eG*eA*eA*eA*e[5mC]) [compound 301171] is in?
RESULT: b0

QUERY: Any idea which band 301181 (antisense eA*eT*e[5mC]*eT*e[5mC]*dT*d[5mC]*dT*dG*dT*d[5mC]*d[5mC]*dT*d[5mC]*dA*eT*e[5mC]*eT*eT*e[5mC]) [compound 301181] is in?
RESULT: b1
